system: T1, human IL-6 (human, UniProt P05231 30-212)
T1 construct: also called interleukin-6
T1 sequence (P05231 30-212 limits assumed): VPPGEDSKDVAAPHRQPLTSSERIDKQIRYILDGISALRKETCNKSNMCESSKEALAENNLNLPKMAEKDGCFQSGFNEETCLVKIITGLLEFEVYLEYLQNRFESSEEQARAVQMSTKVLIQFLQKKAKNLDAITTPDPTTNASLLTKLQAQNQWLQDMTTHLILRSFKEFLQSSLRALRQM
experimental_protocol: SPR (Biacore T200), antibody from cell supernatant captured on Protein A, IL-6 flowed over, 37 C
Recorded koff, one value per entry.
value_type: koff (s⁻¹)

INSERT INTO measurements (binder, measurement) VALUES
  ('anti-IL-6 antibody, heavy chain T65S, G66D / light chain WT (antibody, human IgG1, V domains shown, Derived as m2; Engineered human IgG1) VH: EVQLVESGGGLVQPGGSLRLSCAASGFTFSPFAMSWVRQAPGKGLEWVAKISPGGSWTYYSDTVSDRFTFSLDTSKSTAYLQMNSLRAEDTAVYYCARQLWGYYALDIWGQGTLVTVSS VL: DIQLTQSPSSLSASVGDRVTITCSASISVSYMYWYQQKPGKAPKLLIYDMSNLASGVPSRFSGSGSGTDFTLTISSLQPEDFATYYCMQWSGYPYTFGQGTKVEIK', 0.000383),
  ('anti-IL-6 antibody, heavy chain T63L, G66D / light chain WT (antibody, human IgG1, V domains shown, Derived as m2; Engineered human IgG1) VH: EVQLVESGGGLVQPGGSLRLSCAASGFTFSPFAMSWVRQAPGKGLEWVAKISPGGSWTYYSDLVTDRFTFSLDTSKSTAYLQMNSLRAEDTAVYYCARQLWGYYALDIWGQGTLVTVSS VL: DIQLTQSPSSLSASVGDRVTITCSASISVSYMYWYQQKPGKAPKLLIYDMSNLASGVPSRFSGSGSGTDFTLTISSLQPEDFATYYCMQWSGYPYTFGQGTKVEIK', 0.000363),
  ('anti-IL-6 antibody, heavy chain T63G, G66D / light chain WT (antibody, human IgG1, V domains shown, Derived as m2; Engineered human IgG1) VH: EVQLVESGGGLVQPGGSLRLSCAASGFTFSPFAMSWVRQAPGKGLEWVAKISPGGSWTYYSDGVTDRFTFSLDTSKSTAYLQMNSLRAEDTAVYYCARQLWGYYALDIWGQGTLVTVSS VL: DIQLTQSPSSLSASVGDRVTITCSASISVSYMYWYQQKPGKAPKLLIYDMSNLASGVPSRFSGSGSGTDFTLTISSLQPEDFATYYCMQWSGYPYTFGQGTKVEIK', 0.000397),
  ('anti-IL-6 antibody, heavy chain T65L, G66D / light chain WT (antibody, human IgG1, V domains shown, Derived as m2; Engineered human IgG1) VH: EVQLVESGGGLVQPGGSLRLSCAASGFTFSPFAMSWVRQAPGKGLEWVAKISPGGSWTYYSDTVLDRFTFSLDTSKSTAYLQMNSLRAEDTAVYYCARQLWGYYALDIWGQGTLVTVSS VL: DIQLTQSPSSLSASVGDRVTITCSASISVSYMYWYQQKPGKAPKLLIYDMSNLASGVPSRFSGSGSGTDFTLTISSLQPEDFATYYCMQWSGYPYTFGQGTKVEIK', 0.000375),
  ('anti-IL-6 antibody, heavy chain T63Y, G66D / light chain WT (antibody, human IgG1, V domains shown, Derived as m2; Engineered human IgG1) VH: EVQLVESGGGLVQPGGSLRLSCAASGFTFSPFAMSWVRQAPGKGLEWVAKISPGGSWTYYSDYVTDRFTFSLDTSKSTAYLQMNSLRAEDTAVYYCARQLWGYYALDIWGQGTLVTVSS VL: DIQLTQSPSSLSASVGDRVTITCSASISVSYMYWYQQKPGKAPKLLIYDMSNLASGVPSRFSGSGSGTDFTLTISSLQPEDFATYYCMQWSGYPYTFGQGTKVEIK', 0.000383),
  ('anti-IL-6 antibody, heavy chain S35T, G66D / light chain WT (antibody, human IgG1, V domains shown, Derived as m2; Engineered human IgG1) VH: EVQLVESGGGLVQPGGSLRLSCAASGFTFSPFAMTWVRQAPGKGLEWVAKISPGGSWTYYSDTVTDRFTFSLDTSKSTAYLQMNSLRAEDTAVYYCARQLWGYYALDIWGQGTLVTVSS VL: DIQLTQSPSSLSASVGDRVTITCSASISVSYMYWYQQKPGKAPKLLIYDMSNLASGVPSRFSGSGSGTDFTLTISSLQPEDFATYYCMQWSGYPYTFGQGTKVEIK', 0.000409),
  ('anti-IL-6 antibody, heavy chain T65E, G66D / light chain WT (antibody, human IgG1, V domains shown, Derived as m2; Engineered human IgG1) VH: EVQLVESGGGLVQPGGSLRLSCAASGFTFSPFAMSWVRQAPGKGLEWVAKISPGGSWTYYSDTVEDRFTFSLDTSKSTAYLQMNSLRAEDTAVYYCARQLWGYYALDIWGQGTLVTVSS VL: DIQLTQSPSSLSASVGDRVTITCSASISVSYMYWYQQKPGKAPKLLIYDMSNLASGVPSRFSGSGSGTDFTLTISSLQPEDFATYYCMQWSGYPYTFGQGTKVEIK', 0.000427),
  ('anti-IL-6 antibody, heavy chain I51D, G66D / light chain WT (antibody, human IgG1, V domains shown, Derived as m2; Engineered human IgG1) VH: EVQLVESGGGLVQPGGSLRLSCAASGFTFSPFAMSWVRQAPGKGLEWVAKDSPGGSWTYYSDTVTDRFTFSLDTSKSTAYLQMNSLRAEDTAVYYCARQLWGYYALDIWGQGTLVTVSS VL: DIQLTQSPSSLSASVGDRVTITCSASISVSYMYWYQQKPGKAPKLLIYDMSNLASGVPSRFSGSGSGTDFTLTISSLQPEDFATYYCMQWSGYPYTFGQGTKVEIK', 0.00267),
  ('anti-IL-6 antibody, heavy chain T63S, G66D / light chain WT (antibody, human IgG1, V domains shown, Derived as m2; Engineered human IgG1) VH: EVQLVESGGGLVQPGGSLRLSCAASGFTFSPFAMSWVRQAPGKGLEWVAKISPGGSWTYYSDSVTDRFTFSLDTSKSTAYLQMNSLRAEDTAVYYCARQLWGYYALDIWGQGTLVTVSS VL: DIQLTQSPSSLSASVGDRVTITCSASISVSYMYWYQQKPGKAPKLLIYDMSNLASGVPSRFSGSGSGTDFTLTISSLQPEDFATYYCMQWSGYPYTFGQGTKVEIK', 0.000464),
  ('anti-IL-6 antibody, heavy chain I51S, G66D / light chain WT (antibody, human IgG1, V domains shown, Derived as m2; Engineered human IgG1) VH: EVQLVESGGGLVQPGGSLRLSCAASGFTFSPFAMSWVRQAPGKGLEWVAKSSPGGSWTYYSDTVTDRFTFSLDTSKSTAYLQMNSLRAEDTAVYYCARQLWGYYALDIWGQGTLVTVSS VL: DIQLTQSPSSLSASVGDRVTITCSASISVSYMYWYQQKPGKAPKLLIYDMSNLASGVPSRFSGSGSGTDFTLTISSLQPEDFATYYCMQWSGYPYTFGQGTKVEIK', 0.000362);
